Test system: human PDE10A (UniProt Q9Y233)
Sequence (Q9Y233 290-1055 limits assumed): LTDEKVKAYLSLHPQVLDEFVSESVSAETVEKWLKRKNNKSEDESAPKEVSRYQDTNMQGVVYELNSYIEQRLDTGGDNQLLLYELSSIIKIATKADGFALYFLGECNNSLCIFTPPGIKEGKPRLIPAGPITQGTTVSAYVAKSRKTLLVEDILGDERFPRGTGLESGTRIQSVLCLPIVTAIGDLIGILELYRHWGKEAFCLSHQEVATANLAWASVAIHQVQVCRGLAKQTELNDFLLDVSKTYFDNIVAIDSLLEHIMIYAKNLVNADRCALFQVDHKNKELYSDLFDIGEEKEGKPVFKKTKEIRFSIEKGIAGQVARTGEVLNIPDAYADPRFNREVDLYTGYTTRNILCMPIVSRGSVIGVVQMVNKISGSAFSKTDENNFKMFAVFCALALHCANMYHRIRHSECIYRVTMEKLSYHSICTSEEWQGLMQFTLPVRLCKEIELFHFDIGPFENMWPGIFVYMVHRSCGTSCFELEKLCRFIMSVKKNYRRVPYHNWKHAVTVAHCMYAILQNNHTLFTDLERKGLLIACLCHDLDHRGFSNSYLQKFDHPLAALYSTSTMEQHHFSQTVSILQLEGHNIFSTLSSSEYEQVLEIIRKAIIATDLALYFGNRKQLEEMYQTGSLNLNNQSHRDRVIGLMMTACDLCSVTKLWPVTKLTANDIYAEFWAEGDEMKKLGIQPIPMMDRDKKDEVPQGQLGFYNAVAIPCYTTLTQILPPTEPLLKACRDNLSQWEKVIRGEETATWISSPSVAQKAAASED
Assay notes: Measurement of PDE activity (recombinant enzyme, HTRF cAMP kit)
Type: biochemical
Assay setup: Table 1, substrate 20 nM for PDE10, 60 minutes at 29 C, read-out: IC50
IC50 by entry:

**Query** Consider the molecule shown here: Cc1noc(C)c1-c1csc2cnn(CCc3ccc4ccccc4n3)c(=O)c12 What is its recorded IC50?
**Result** < 100 nM

**Query** Requested read-out: IC50. Entry: O=c1c2c(-c3ccncc3)csc2ccn1/C=C/c1nc2ccccc2s1
**Result** < 100 nM

**Query** Need IC50 of O=c1c2c(-c3ccncc3)coc2ccn1[C@@H]1C[C@H]1c1ccc2ccccc2n1 (relative stereo) , thanks.
**Result** < 100 nM

The measured values listed here are drawn from patent US20130116241A1.
